I'd appreciate it if you could supply Ki values for the items below.
study target: human α-thrombin (Homo sapiens, UniProt P00734)
method notes: Enzymatic Assay for Thrombin (Boc-VPR-AMC substrate)
Assay type: biochemical
conditions: human α-thrombin, Boc-VPR-AMC substrate
Counter-ions that a name gives are not always drawn.

In: Ki for C[C@H](NC(=O)[C@H](N)CCc1ccccc1)C(=O)NCc1cc(Cl)ccc1C#N [compound 1313, Trifluoroacetate salt] ?
Out: 10 to 25 µM

In: Could you tell me which Ki is on file for Cc1nc(N)ccc1CNC(=O)[C@H](CCC(N)=O)NC(=O)[C@H](N)CCc1ccccc1 ?
Out: > 25 µM

In: What does the record list as Ki for Cc1nc(N)ccc1CNC(=O)C(C)NC(=O)[C@H]1C[C@H](c2cccc(-c3ccccc3)c2)CN1 (stereo in doubt) [compound 1359, Di-trifluoroacetate salt] ?
Out: > 25 µM

In: Which Ki is reported for this compound? C[C@H](OC(=O)[C@H](N)CCc1ccccc1)C(=O)NCc1ccc(C(=N)N)cc1 [compound 1315, Hydrochloride]
Out: 2.5 to 10 µM

---

Field: pKi. Provide a value for each of the compounds that follow.
study target: UniProt:P00734
method notes: Enzymatic Assay for Thrombin (Boc-VPR-AMC substrate)
Type: biochemical
pKi: −log10 of the molar value.

In: Entry under review: C[C@H](NC(=O)[C@H](N)CCc1ccccc1)C(=O)NCc1cccc(Cl)c1 [compound 1021] . Reported pKi?
Out: < 4.60

In: Reported pKi for C[C@H](NC(=O)[C@@H](CCc1ccccc1)NCc1ccc(C(=O)N2CCOCC2)cc1)C(=O)NCc1ccc(C(=N)N)cc1 [compound 1153] : what is it?
Out: > 6.30

---

Tested on: Lectin Pathway
method notes: Lectin Pathway Activation Assay in Human Serum (mannan-coated ELISA, C3c detection)
Type: biochemical
conditions: 1% human serum, mannan-coated plate
pIC50: −log10 of the molar value.
Would you kindly list pIC50 for each of these compounds?

In: Can you look up the measured pIC50 of C[C@H](NC(=O)[C@H]1C[C@H](Cc2ccccc2-c2ccc(Cl)s2)CN1)C(=O)NCc1cc(Cl)ccc1-n1cnnn1 [compound 1409] for me?
Out: 5.30 to 6.30

In: Field request: pIC50 | item: COc1cc(C[C@@H]2CN[C@@H](C(=O)N[C@@H](C)C(=O)NCc3ccc(N)nc3C)C2)cc(OC)c1 [compound 1407]
Out: 6.30 to 7.30

In: Which pIC50 is reported for this compound? Cc1nc(N)ccc1CNC(=O)[C@H](C)NC(=O)[C@H]1C[C@H](Cc2ccccc2-c2ccccc2)CN1 [compound 1373]
Out: 6.30 to 7.30

In: Record request: pIC50 value, item C[C@H](NC(=O)[C@H]1C[C@H](c2ccccc2)CN1)C(=O)NCc1cc(Cl)cc(Cl)c1O [compound 1395]
Out: 4.30 to 5.30

---

pKi: −log10 of the molar value. Counter-ions that a name gives are not always drawn.
pKi data for mMASP-2 (Mus musculus, UniProt Q91WP0) follow.

In: What value of pKi has been reported for the following compound? C[C@H](NC(=O)[C@H](N)CCc1ccccc1)C(=O)NCc1cccc(Cl)c1
Out: < 4.60

In: Request the reported pKi associated with C[C@H](NC(=O)[C@H]1C[C@H](c2ccccc2)CN1)C(=O)NCc1ccc(/C(N)=N/O)cc1
Out: 4.60 to 5.00

In: May I ask what pKi has been recorded for Cc1nc(N)ccc1CNC(=O)[C@H](C)NC(=O)[C@H]1C[C@@H](c2cccc(CN)c2)CN1 [compound 1291, Dihydrochloride] ?
Out: 4.60 to 5.00

In: GET /values?readout=pKi&item= C[C@H](NC(=O)[C@H](N)CCc1ccccc1)C(=O)NCc1cc(Cl)ccc1-n1cnnn1
Out: 4.60 to 5.00

In: May I ask what pKi has been recorded for Cc1cccc(CNC(=O)[C@H](C)NC(=O)[C@H]2C[C@H](Cc3ccccc3)CN2)c1-n1ncnn1 ?
Out: 5.00 to 5.60

In: Given the entry C[C@H](NC(=O)[C@H]1C[C@H](c2ccccc2)CN1)C(=O)NCc1ccc2c(N)nccc2c1 , report its measured pKi.
Out: > 6.30

In: pKi lookup needed for Cc1nc(N)ccc1CNC(=O)[C@H](CCC(N)=O)NC(=O)[C@H](N)CCc1ccccc1 , thanks.
Out: < 4.60

In: Can you share its pKi? I mean this compound: C[C@H](NC(=O)[C@H](N)CCc1ccccc1)C(=O)NCc1cc(Cl)ccc1C#N [compound 1313, Trifluoroacetate salt]
Out: < 4.60
